- tgt: HDAC6 (Homo sapiens)
- Sequence (Q9UBN7 whole entry): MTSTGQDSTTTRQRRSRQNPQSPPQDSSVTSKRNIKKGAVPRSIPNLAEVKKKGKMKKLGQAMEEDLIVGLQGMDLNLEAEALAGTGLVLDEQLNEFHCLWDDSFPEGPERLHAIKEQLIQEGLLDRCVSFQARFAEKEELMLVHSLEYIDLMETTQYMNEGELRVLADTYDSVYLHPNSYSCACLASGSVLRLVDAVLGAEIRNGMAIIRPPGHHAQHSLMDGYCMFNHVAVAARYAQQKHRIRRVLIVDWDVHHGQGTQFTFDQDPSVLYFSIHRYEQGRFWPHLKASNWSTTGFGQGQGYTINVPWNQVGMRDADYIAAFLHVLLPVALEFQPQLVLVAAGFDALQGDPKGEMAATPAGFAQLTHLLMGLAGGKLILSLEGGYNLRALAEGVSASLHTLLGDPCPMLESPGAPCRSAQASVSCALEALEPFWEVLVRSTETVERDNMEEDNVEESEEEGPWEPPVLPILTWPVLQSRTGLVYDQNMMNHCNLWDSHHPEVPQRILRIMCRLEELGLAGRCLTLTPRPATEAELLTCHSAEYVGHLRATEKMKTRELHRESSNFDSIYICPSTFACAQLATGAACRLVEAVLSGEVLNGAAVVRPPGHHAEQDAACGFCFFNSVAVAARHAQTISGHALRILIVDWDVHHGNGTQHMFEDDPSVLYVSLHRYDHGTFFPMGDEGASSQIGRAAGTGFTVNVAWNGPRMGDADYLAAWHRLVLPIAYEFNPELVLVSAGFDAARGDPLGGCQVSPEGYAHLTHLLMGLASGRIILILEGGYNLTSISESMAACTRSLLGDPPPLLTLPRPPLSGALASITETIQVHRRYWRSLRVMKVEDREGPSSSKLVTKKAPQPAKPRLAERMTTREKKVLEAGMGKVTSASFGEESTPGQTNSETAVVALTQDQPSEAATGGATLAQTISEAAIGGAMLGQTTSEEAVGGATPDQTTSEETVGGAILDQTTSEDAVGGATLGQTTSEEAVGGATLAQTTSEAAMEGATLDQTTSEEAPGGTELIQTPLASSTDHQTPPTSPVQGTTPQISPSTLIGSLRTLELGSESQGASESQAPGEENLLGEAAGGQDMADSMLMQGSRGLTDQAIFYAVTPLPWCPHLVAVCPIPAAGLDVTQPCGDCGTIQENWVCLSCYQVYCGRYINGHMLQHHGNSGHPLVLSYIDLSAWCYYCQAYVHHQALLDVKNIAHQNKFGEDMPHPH
- assay-explanation: Human HDAC enzyme inhibitor Fluor-de-Lys assay, HDAC6
- Type: biochemical
- condition-parameters: HDAC6, Fluor-de-Lys assay
Please provide measured pIC50 for the entries that follow.
Friendly reminder that pIC50 comes from taking -log10 of the concentration in mol/L.

Query :: // query pIC50 value for entry CCC(=O)CCCCC[C@H](NC(=O)C1=NOC2(CCN(S(C)(=O)=O)CC2)C1)c1ncc(-c2ccccc2)[nH]1 [Compound 383]
Result :: 4.79

Query :: // query pIC50 value for entry CCC(=O)CCCCC[C@H](NC(=O)CC1CC2(C1)CN(C)C2)c1ncc(-c2cc3ccccc3nc2OC)[nH]1 [Compound 314]
Result :: 6.39

Query :: // query pIC50 value for entry CCC(=O)CCCCC[C@H](NC(=O)CC1CC2(C1)CN(C)C2)c1nnc(-c2cc3ccccc3nc2OC)o1 [Compound 308]
Result :: 5.89

Query :: // query pIC50 value for entry CCC(=O)CCCCC[C@H](NC(=O)[C@H]1C[C@@]12CCN(C)C2)c1ncc(-c2cc3ccccc3nc2OC)[nH]1 [Compound 328]
Result :: 6.40

Query :: // query pIC50 value for entry CCC(=O)CCCCC[C@H](NC(=O)[C@H]1CC12CCN(C)CC2)c1ncc(-c2cc3ocnc3cc2OC)o1 [Compound 408]
Result :: 6.19

Query :: // query pIC50 value for entry CCC(=O)CCCCC[C@H](NC(=O)C1NC(=O)CC12CN(C)C2)c1ncc(-c2cc3ccccc3nc2OC)[nH]1 (stereo partly drawn) [Compound 317]
Result :: 6.73

Query :: // query pIC50 value for entry CCC(=O)CCCCC[C@@H](NC(=O)C1CCC2(CC1)CN(C)C2)c1ncc(-c2ccccc2)[nH]1 [Compound 310]
Result :: 5.22

Query :: // query pIC50 value for entry CCC(=O)CCCCC[C@H](NC(=O)C1=NOC2(CCN(C)CC2)C1)c1ncc(-c2ccccc2)[nH]1 [Compound 382]
Result :: 4.92

Query :: // query pIC50 value for entry CCC(=O)CCCCC[C@H](NC(=O)[C@@H]1CC12CN(C)C2)c1ncc(-c2cc3ccccc3nc2OC)[nH]1 [Compound 322]
Result :: 6.66

Query :: // query pIC50 value for entry CCC(=O)CCCCC[C@H](NC(=O)[C@H]1CC[C@]2(CC1)OC(=O)c1ncccc12)c1ncc(-c2ccccc2)[nH]1 [Compound 377]
Result :: 5.08

Query :: // query pIC50 value for entry CCC(=O)CCCCC[C@H](NC(=O)[C@H]1CC[C@@]2(CC1)OC(=O)c1cnccc12)c1ncc(-c2ccccc2)[nH]1 [Compound 373]
Result :: 5.00

Query :: // query pIC50 value for entry CCC(=O)CCCCC[C@H](NC(=O)[C@H]1CC12CCN(C)CC2)c1nnc(-c2cc3ccccc3nc2OC)o1 [Compound 306]
Result :: 5.93

Query :: // query pIC50 value for entry CCC(=O)CCCCC[C@H](NC(=O)[C@H]1CC12CCN(C(C)C)CC2)c1ncc(-c2cc3ccccc3nc2OC)[nH]1 [Compound 337]
Result :: 6.80

Query :: // query pIC50 value for entry CCC(=O)CCCCC[C@H](NC(=O)C1CC2(C1)CN(C)C2)c1ncc(-c2cc3ccccc3nc2OC)[nH]1 [Compound 311]
Result :: 6.41

Query :: // query pIC50 value for entry CCC(=O)CCCCC[C@H](NC(=O)C1CC12CCN(C)CC2)c1ncc(-c2cc3ccccc3nc2OC)[nH]1 (stereo partly drawn) [Compound 313]
Result :: 6.61

Query :: // query pIC50 value for entry CCC(=O)CCCCC[C@H](NC(=O)[C@H]1CC12CCN(CC)CC2)c1ncc(-c2cc3ccccc3nc2O)[nH]1 [Compound 291]
Result :: 6.13

Query :: // query pIC50 value for entry CCC(=O)CCCCC[C@H](NC(=O)CC1CC2(CNC2)C1)c1ncc(-c2ccccc2)[nH]1 [Compound 297]
Result :: 5.09

Query :: // query pIC50 value for entry CCC(=O)CCCCC[C@H](NC(=O)C1CC2(CCN(CC)CC2)C1)c1ncc(-c2cc3ccccc3nc2OC)[nH]1 [Compound 278]
Result :: 6.32

Query :: // query pIC50 value for entry CCC(=O)CCCCC[C@H](NC(=O)[C@H]1CC12CCN(Cc1ccc(OC)cc1)CC2)c1ncc(-c2cc3ccccc3nc2OC)[nH]1 [Compound 295]
Result :: 6.01

----------
- tgt: Recombinant human HDAC1 (Homo sapiens, UniProt Q13547)
- Construct: FLAG (C); made in house
- Sequence (Q13547 whole entry): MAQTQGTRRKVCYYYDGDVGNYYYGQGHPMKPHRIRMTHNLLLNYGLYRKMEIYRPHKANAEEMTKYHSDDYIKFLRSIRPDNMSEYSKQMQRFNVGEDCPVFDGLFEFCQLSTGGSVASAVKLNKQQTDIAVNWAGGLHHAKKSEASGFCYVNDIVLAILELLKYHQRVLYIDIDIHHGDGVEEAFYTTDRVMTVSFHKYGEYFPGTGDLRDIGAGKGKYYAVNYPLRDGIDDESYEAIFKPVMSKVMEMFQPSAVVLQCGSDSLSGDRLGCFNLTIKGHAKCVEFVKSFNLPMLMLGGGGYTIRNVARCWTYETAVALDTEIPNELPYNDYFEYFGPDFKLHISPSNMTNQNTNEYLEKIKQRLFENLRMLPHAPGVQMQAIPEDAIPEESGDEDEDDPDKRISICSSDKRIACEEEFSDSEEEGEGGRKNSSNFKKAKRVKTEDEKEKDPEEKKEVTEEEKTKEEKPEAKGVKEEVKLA
- assay-explanation: Human HDAC enzyme inhibitor Fluor-de-Lys assay, HDAC1
- Format: biochemical
We label by threshold. Values of IC50 strictly beneath 7 nM are y. Values of 7 nM and up are n.

Query :: Consider the compound CCC(=O)CCCCC[C@H](NC(=O)C1=NOC2(CCN(C)CC2)C1)c1ncc(-c2cc3ccc(=O)n(C)c3cc2OC)o1 [Compound 193] . Is its IC50 strictly less than 7 nM?
Result :: y

Query :: Consider the compound CCC(=O)CCCCC[C@H](NC(=O)C1=NOC2(CCN(C(C)C)CC2)C1)c1ncc(-c2ccc3nc(C4CC4)ccc3c2)o1 [Compound 136] . Is its IC50 strictly less than 7 nM?
Result :: n

Query :: Consider the compound CCN1CCC2(CC1)C[C@@H]2C(=O)N[C@@H](CCCCCC(=O)CC1CC1)c1ncc(-c2cc3ccc(C)nc3cc2OC)o1 [Compound 167] . Is its IC50 strictly less than 7 nM?
Result :: y

Query :: Consider the compound CCC(=O)CCCCC[C@H](NC(=O)[C@H]1CC12CCN(C)CC2)c1ncc(-c2ccc3c(ccc(=O)n3C)c2)o1 [Compound 109] . Is its IC50 strictly less than 7 nM?
Result :: y

Query :: Consider the compound CCC(=O)CCCCC[C@H](NC(=O)[C@H]1CC12CCN(CC)CC2)c1ncc(-c2ccc3c(cnn3C3CC3)c2)[nH]1 [Compound 159] . Is its IC50 strictly less than 7 nM?
Result :: y

Query :: Consider the compound CCC(=O)CCCCC[C@H](NC(=O)[C@H]1CC12CCN(C)CC2)c1ncc(-c2ccc3nc(C)ccc3c2)o1 [Compound 80] . Is its IC50 strictly less than 7 nM?
Result :: y

Query :: Consider the compound CCC(=O)CCCCC[C@H](NC(=O)[C@H]1CC12CCN(C)CC2)c1ncc(-c2ccc3nc(C4CC4)oc3c2)[nH]1 [Compound 160] . Is its IC50 strictly less than 7 nM?
Result :: y

Query :: Consider the compound CCC(=O)CCCCC[C@H](NC(=O)[C@H]1CC12CCN(CC)CC2)c1ncc(-c2ccc(-c3cnc(C4CC4)cn3)cc2)o1 [Compound 129] . Is its IC50 strictly less than 7 nM?
Result :: n

Query :: Consider the compound CCC(=O)CCCCC[C@H](NC(=O)[C@H]1CC12CCN(C)CC2)c1ncc(-c2ccc(-c3ccc(C4CC4)nc3)cc2)o1 [Compound 143] . Is its IC50 strictly less than 7 nM?
Result :: n

Query :: Consider the compound CCC(=O)CCCCC[C@H](NC(=O)[C@H]1CC12CCN(C(C)C)CC2)c1ncc(-c2ccc3nc(C4CC4)ccc3c2)o1 [Compound 116] . Is its IC50 strictly less than 7 nM?
Result :: y

Query :: Consider the compound CCC(=O)CCCCC[C@H](NC(=O)[C@H]1CC12CCN(C)CC2)c1ncc(-c2ccc3c(=O)n(C)ccc3c2)o1 [Compound 137] . Is its IC50 strictly less than 7 nM?
Result :: n

Query :: Consider the compound CCC(=O)CCCCC[C@H](NC(=O)[C@H]1CC12CCN(CC)CC2)c1nc(-c2cc3ccc(C)nc3cc2OC)cn1COC(=O)C(C)(C)C [Compound 215] . Is its IC50 strictly less than 7 nM?
Result :: y

Query :: Consider the compound CCC(=O)CCCCC[C@H](NC(=O)[C@H]1CC12CCN(CC)CC2)c1ncc(-c2ccc(-c3cnc(C4CC4)nc3)cc2)o1 [Compound 161] . Is its IC50 strictly less than 7 nM?
Result :: n

Query :: Consider the compound CCC(=O)CCCCC[C@H](NC(=O)[C@H]1CC12CCN(C)CC2)c1ncc(-c2ccc3c(c2)C2CCC3C2)[nH]1 (some centres unmarked) [Compound 74] . Is its IC50 strictly less than 7 nM?
Result :: n

Query :: Consider the compound CCC(=O)CCCCC[C@H](NC(=O)[C@H]1CC12CCN(C)CC2)c1[nH]c(-c2ccc(F)cc2)nc1Cl [Compound 91] . Is its IC50 strictly less than 7 nM?
Result :: y

Query :: Consider the compound CC(O)C(=O)CCCCC[C@H](NC(=O)[C@H]1CC12CCN(C)CC2)c1nc(-c2ccc(F)cc2)c[nH]1 (some centres unmarked) [Compound 134] . Is its IC50 strictly less than 7 nM?
Result :: n

Query :: Consider the compound CCC(=O)CCCCC[C@H](NC(=O)[C@H]1CC12CCN(C)CC2)c1nc(F)c(-c2cc3ccccc3nc2OC)[nH]1 [Compound 75] . Is its IC50 strictly less than 7 nM?
Result :: n

Query :: Consider the compound C=CCN1CCC2(CC1)C[C@@H]2C(=O)N[C@@H](CCCCCC(=O)CC)c1ncc(-c2ccc3c(c2)C2CCC3N2CC=C)[nH]1 (some centres unmarked) [Compound 179] . Is its IC50 strictly less than 7 nM?
Result :: n

Query :: Consider the compound CCC(=O)CCCCC[C@H](NC(=O)[C@H]1CC12CCN(CC1CC1)CC2)c1ncc(-c2ccc3nc(C4CC4)ccc3c2)o1 [Compound 115] . Is its IC50 strictly less than 7 nM?
Result :: y

Query :: Consider the compound CCC(=O)CCCCC[C@H](NC(=O)[C@H]1CC12CCN(CC)CC2)c1ncc(-c2ccc(-n3cccn3)cc2)o1 [Compound 95] . Is its IC50 strictly less than 7 nM?
Result :: y

Query :: Consider the compound CCN1CCC2(CC1)C[C@@H]2C(=O)N[C@@H](CCCCCC(=O)CC1CCC1)c1ncc(-c2cc3ccc(C)nc3cc2OC)o1 [Compound 184] . Is its IC50 strictly less than 7 nM?
Result :: n

Query :: Consider the compound CCC(=O)CCCCC[C@H](NC(=O)[C@H]1CC12CCN(CC)CC2)c1ncc(-c2ccc(-c3ncco3)cc2)o1 [Compound 94] . Is its IC50 strictly less than 7 nM?
Result :: n

Query :: Consider the compound CCC(=O)CCCCC[C@H](NCCN(C)C)c1ncc(-c2cc3ccc(C)nc3cc2OC)[nH]1 [Compound 217] . Is its IC50 strictly less than 7 nM?
Result :: y

Query :: Consider the compound COc1cc2nc(C)ccc2cc1-c1cnc([C@H](CCCCCC(=O)CC2CC2)NC(=O)[C@H]2CC23CCN(C)CC3)o1 [Compound 195] . Is its IC50 strictly less than 7 nM?
Result :: y
